- PROTOCOL_NOTES: viability of HCT116 without oncogenic beta-catenin – human colon tumor cells, pilot screen (AID 823);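 also: 0% = wells killed by 20 µM Hyamine and 100% = untreated DMSO cell wells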
- RUN_CONDITIONS: HCT116 beta-catenin knockout viability, CellTiter-Glo, 60 h; at 10 µM; hits give low values
Results filed as inconclusive are left out.
MEASURE: viability (%)

>  <COMPOUND>
C=Cn1ccnc1P(=S)(c1cc(N(CC)CC)ns1)c1nccn1C=C

>  <OBSERVED>
92.1

$$$$
>  <COMPOUND>
CCCOC(=O)COc1cc(C)cc2oc(=O)c3c(c12)CCC3

>  <OBSERVED>
88

$$$$
>  <COMPOUND>
O=C1CC(N2CC=C(c3ccccc3)CC2)C(=O)N1c1ccc(F)cc1 (centres undefined)

>  <OBSERVED>
98.8

$$$$
>  <COMPOUND>
CN1CCN(CCC(C#N)(c2ccccc2)c2ccccc2)CC1

>  <OBSERVED>
87

$$$$
>  <COMPOUND>
c1ccc(C2NCc3ccccc3-n3cccc32)cc1 (centres undefined)

>  <OBSERVED>
68.2

$$$$
>  <COMPOUND>
CC12CN3CC(C)(CN(C1)P3(=O)Oc1ccccc1)C2=O (centres undefined)

>  <OBSERVED>
101

$$$$
>  <COMPOUND>
Cc1ccc2cccc(OC(=O)N(C)c3ccccc3)c2n1

>  <OBSERVED>
95.5

$$$$
>  <COMPOUND>
Cc1ccc(-n2nc(C)c3c2NC(=O)CSC3c2ccc3c(c2)OCO3)cc1 (centres undefined)

>  <OBSERVED>
89.9

$$$$
>  <COMPOUND>
COc1ccc(CC2C(=O)NC(=O)N(c3ccccc3)C2=O)c(OC)c1 (centres undefined)

>  <OBSERVED>
89.6

$$$$
